Biological target: Arginase-2, mitochondrial (Homo sapiens)
Assay: in vitro enzyme assay to detect the production of urea directly proportional to the activity of Arginase II; further: in the data most compounds retested in dose-response had high values
Assay type: functional
Design: scale not given: direction of the effect not stated beside the values
Details: 33.3 µM
recorded.endpoint: Percent Effect (%)
Write the number in % without appending the unit.

[
  {
    "compound": "Cc1nc(-c2ccsc2)ccc1C(=O)NCCC(=O)N1CCCC1",
    "study.target": "Arginase-2, mitochondrial (Homo sapiens)",
    "Percent Effect / %": 1.15
  },
  {
    "compound": "CCCC(=O)Nc1sc(C(=O)OCC)c(C)c1C#N",
    "study.target": "Arginase-2, mitochondrial (Homo sapiens)",
    "Percent Effect / %": 8.39
  }
]

API: the following record is the query input.
Field Percent Effect (entry CC(NC(=O)NCc1cccnc1N1CCCCC1)c1nccs1 (configuration not stated) ) reads -7.12

----------
Quick list: Percent Effect per entry.
Molecular target: Protein translocase subunit SecA (Escherichia coli (strain K12)) (UniProt P10408)
Sequence (P10408 whole entry): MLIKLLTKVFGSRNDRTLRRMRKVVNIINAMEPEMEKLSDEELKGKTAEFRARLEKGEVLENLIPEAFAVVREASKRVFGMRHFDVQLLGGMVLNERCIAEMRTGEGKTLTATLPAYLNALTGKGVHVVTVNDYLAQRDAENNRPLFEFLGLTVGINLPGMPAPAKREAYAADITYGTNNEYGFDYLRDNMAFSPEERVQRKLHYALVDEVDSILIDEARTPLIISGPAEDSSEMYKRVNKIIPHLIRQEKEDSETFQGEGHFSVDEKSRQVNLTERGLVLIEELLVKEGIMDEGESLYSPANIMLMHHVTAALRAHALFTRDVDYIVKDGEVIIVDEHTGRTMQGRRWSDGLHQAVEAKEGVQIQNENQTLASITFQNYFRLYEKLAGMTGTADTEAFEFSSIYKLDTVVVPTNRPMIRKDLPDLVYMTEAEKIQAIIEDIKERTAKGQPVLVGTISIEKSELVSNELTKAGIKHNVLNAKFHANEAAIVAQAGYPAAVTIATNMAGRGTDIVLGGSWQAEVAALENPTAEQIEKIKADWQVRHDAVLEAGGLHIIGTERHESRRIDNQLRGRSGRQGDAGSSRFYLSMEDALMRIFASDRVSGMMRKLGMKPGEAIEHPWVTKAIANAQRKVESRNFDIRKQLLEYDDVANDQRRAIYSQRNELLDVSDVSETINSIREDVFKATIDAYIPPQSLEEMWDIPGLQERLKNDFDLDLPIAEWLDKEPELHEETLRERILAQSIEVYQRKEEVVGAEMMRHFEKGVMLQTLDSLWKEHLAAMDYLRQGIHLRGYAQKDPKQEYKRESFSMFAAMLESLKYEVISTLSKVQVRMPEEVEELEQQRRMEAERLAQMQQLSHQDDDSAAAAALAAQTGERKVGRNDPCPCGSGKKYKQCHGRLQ
Test: Assay to Identify E. coli SecA ATPase Inhibitors
Type: functional
Design: scale not given: direction of the effect not stated beside the values
Settings: 30 µM
Results with a measured potency or affinity are listed apart.
Write the number in % without appending the unit.

[
  {
    "molecule": "Cc1nc(C)n(C2CCCN(C(=O)c3csnn3)C2)n1 (stereo not given)",
    "Percent Effect, %": -2.6
  }
]

Field Percent Effect (entry `COc1ccc(CN2C[C@@H](N(C)Cc3ccco3)[C@H]3OCCC[C@H]32)cc1` ) reads -4.13

Field Percent Effect (entry `O=c1cc(Cn2ccnc2)nc2n1CCCN(Cc1ccsc1)C2` ) reads -4.06

Field Percent Effect (entry `CSc1ncccc1C(=O)NCc1ccc(CS(=O)(=O)NC(C)C)cc1` ) reads -2.86

Field Percent Effect (entry `O=C(C1CCN(c2snc3ccccc23)CC1)N1CCCCCC1` ) reads 1.1

----------
Quick list: Percent Effect per entry.
Target: Proteasome subunit beta (Trypanosoma cruzi)
Assay: Trypanosoma cruzi proteasome chymotrypsin-like activity (TcProtChymo) assay. Further: in the data most compounds retested in dose-response had high values.
Format: functional
Parameters: scale not given: direction of the effect not stated beside the values
Settings: 9.37 µM
Write the number in % without appending the unit.

[
  {
    "compound": "CCNC(=O)c1ccoc1CN1c2ccccc2CC1C (stereo not drawn)",
    "measured.number": 12.4
  },
  {
    "compound": "O=C(NC1CC1)c1ccc2ccc(N3CCN(CC4CC4)CC3)n2c1",
    "measured.number": 9.19
  },
  {
    "compound": "CC(C)C(=O)NCC(=O)N(C)C1CCCN(C2Cc3ccccc3C2)C1 (stereo not drawn)",
    "measured.number": 14.3
  },
  {
    "compound": "CCNC(c1cccnc1)c1ccc(F)c(F)c1 (stereo not drawn)",
    "measured.number": 5.66
  },
  {
    "compound": "CCn1cc2c(n1)CN(CC1CC1)CC2COCC1CC1 (stereo not drawn)",
    "measured.number": 9.25
  }
]

Field Percent Effect (entry CCN1CC2(CC1=O)CN(Cc1cnn(C)c1)CCN(C(C)=O)C2 (stereo not drawn) ) reads 10.4

Field Percent Effect (entry `CCCOc1ccc(NC(=O)NCCC(=O)N(C)C)cc1Cl` ) reads 19

Field Percent Effect (entry COc1cccc(CN2CCCCCC2c2cccs2)c1O (stereo not drawn) ) reads 15.8

Field Percent Effect (entry CCN1CCC(CNCc2cc(OC)ccc2OC)C1 (stereo not drawn) ) reads 6.17
